- systemUnderTest: DLG1_2, Q12959
- Sequence (Q12959 314-412): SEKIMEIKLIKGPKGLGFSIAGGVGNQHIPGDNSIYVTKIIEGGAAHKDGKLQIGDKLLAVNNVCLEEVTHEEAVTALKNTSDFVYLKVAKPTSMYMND
- assay: holdup assay
- Design: key: below the threshold = too weak to quantify, mostly under pKd 3.1 to 4
- reportedConditions: plain residues with an end cap or a label only (N-terminal biotin on a linker: ado-ado)
recordedEndpoint: pKd

// worked examples, pKd included
LKVPPEERLI [CRB2, Q5IJ48]	below the threshold
VNKSKLLTDV [KCNA1, Q09470]	4.55
QPCFNKLFPL [LPXN, O60711]	below the threshold
SNAGNTATKA [NOSTRIN, Q8IVI9]	below the threshold
QKNRKAQEDL [CES3, Q6UWW8]	below the threshold

Per the record, NHSSSPETTA [TRMT13, Q9NUP7] has pKd of below the threshold

Per the record, SAAKVLTSMC [GHRHR, Q02643] has pKd of below the threshold

Per the record, KSGKQTMLVV [TRIM29, Q14134] has pKd of 3.67
